Target: human αvβ3 receptor (Homo sapiens, UniProt P05106+P06756)
Sequence (P06756 31-889 limits assumed): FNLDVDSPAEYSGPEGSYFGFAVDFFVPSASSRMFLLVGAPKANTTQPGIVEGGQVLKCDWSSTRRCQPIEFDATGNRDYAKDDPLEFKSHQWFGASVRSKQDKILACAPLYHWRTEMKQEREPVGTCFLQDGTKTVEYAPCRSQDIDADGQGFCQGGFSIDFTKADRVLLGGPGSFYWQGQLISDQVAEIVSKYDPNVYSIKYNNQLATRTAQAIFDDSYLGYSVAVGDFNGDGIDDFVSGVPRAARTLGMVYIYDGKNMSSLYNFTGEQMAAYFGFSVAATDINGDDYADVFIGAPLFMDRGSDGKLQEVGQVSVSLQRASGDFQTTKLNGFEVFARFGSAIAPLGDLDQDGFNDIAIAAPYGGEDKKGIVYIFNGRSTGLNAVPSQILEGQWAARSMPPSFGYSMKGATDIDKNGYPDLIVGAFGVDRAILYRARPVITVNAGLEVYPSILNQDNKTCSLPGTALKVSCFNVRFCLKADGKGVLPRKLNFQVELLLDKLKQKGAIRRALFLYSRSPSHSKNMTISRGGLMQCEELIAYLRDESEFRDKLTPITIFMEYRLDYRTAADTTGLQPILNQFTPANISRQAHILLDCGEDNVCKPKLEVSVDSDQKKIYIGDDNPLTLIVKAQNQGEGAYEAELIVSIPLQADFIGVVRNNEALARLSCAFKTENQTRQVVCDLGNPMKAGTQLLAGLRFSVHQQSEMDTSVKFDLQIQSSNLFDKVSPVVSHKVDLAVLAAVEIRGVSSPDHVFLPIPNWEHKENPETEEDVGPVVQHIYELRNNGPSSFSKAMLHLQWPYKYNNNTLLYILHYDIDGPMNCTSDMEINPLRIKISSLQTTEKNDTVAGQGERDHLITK
Sequence (P06756 891-1048 limits assumed): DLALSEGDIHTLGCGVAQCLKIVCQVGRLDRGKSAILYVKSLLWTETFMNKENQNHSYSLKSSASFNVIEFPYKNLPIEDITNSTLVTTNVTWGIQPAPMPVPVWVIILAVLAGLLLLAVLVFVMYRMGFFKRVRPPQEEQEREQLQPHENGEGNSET
Sequence (P05106 27-788): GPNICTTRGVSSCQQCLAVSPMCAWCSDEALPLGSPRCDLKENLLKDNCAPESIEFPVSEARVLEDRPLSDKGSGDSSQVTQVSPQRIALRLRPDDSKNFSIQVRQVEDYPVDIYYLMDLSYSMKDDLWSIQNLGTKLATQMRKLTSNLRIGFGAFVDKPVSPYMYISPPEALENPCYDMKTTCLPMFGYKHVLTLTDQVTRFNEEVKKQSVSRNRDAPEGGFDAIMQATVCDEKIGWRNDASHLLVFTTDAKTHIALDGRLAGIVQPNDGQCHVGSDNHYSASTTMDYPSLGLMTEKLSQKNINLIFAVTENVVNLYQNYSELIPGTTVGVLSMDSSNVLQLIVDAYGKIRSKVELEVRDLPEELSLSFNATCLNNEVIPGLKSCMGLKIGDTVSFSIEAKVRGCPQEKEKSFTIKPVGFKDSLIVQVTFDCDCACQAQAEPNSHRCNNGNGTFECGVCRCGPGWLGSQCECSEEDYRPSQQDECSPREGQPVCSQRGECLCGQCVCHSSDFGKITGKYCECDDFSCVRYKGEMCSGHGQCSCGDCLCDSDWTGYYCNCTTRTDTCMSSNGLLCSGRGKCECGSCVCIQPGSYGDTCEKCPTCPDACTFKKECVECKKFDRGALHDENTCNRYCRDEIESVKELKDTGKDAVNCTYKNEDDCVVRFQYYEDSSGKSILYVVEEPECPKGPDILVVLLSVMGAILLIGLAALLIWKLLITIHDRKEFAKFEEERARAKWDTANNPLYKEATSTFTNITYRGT
Experiment: Kistrin/Vitronectin Receptor (αvβ3) ELISA test
Conditions: Kistrin-coated plates, co-incubated 3 hours at ambient temperature, 4B12-HRP antibody, OD 450 nm, read-out: K/VnR IC50
pIC50: −log10 of the molar value. Counter-ions that a name gives are not always drawn.
quantityName: pIC50

The following molecules have reported results that may help.
molecule	targetOfAssay	reading
O=C(CCCOc1ccc(C[C@H](Nc2nc3cc(Br)ccc3o2)C(=O)O)cc1)NC1=NCCCN1 [Example 18, trifluoroacetate]	human αvβ3 receptor (Homo sapiens, UniProt P05106+P06756)	7.96
Cc1c(Cl)cc2nc(N[C@@H](Cc3ccc(OCCCC(=O)NC4=NCCCN4)cc3)C(=O)O)oc2c1Cl	human αvβ3 receptor (Homo sapiens, UniProt P05106+P06756)	8.00

(I) O=C(CCCOc1ccc(C[C@H](Nc2nnnn2Cc2ccccc2)C(=O)O)cc1)NC1=NCCCN1
(II) O=C(CCCOc1ccc(C[C@H](Nc2nc3ccc([N+](=O)[O-])cc3o2)C(=O)O)cc1)NC1=NCCCN1
Prompt: Higher pIC50: I or II ? Selection: enter the item's label.
Response: II
(II: 8.10, I: 7.82)
